koff reference
biological target: human IL-6 (human, UniProt P05231 30-212); experiment: SPR (Biacore), supernatant antibody on Protein A chip, IL-6 flowed, 37 C
Sequence (P05231 30-212 limits assumed): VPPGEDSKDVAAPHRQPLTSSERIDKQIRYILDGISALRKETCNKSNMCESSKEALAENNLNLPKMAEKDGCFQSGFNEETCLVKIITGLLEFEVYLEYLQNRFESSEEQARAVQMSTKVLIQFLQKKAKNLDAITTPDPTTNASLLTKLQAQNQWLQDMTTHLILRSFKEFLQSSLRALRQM
Test Readout: koff (s⁻¹)

Binder: anti-IL-6 antibody, heavy chain I51L, G66D / light chain M32L, M50D, N52S, M88Q (antibody, human IgG1, V domains shown, Human IgG1) VH: EVQLVESGGGLVQPGGSLRLSCAASGFTFSPFAMSWVRQAPGKGLEWVAKLSPGGSWTYYSDTVTDRFTFSLDTSKSTAYLQMNSLRAEDTAVYYCARQLWGYYALDIWGQGTLVTVSS VL: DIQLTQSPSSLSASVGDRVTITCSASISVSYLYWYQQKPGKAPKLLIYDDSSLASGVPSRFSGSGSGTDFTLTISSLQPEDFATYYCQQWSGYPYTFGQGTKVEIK
Value Unit: s⁻¹
Result Number: 0.00161
//
Binder: anti-IL-6 antibody, heavy chain T63L, G66D / light chain M32L, M50D, N52S, M88Q (antibody, human IgG1, V domains shown, Human IgG1) VH: EVQLVESGGGLVQPGGSLRLSCAASGFTFSPFAMSWVRQAPGKGLEWVAKISPGGSWTYYSDLVTDRFTFSLDTSKSTAYLQMNSLRAEDTAVYYCARQLWGYYALDIWGQGTLVTVSS VL: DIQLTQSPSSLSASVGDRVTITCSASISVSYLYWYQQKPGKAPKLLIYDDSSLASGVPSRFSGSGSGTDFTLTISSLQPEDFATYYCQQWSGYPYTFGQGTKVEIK
Value Unit: s⁻¹
Result Number: 0.000454
//
Binder: anti-IL-6 antibody, heavy chain T63S, G66D / light chain M32L, M50D, N52S, M88Q (antibody, human IgG1, V domains shown, Human IgG1) VH: EVQLVESGGGLVQPGGSLRLSCAASGFTFSPFAMSWVRQAPGKGLEWVAKISPGGSWTYYSDSVTDRFTFSLDTSKSTAYLQMNSLRAEDTAVYYCARQLWGYYALDIWGQGTLVTVSS VL: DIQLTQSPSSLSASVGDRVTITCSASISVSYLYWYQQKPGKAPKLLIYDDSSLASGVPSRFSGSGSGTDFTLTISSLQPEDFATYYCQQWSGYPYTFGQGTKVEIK
Value Unit: s⁻¹
Result Number: 0.000499
//
Binder: anti-IL-6 antibody, heavy chain T65L, G66D / light chain M32L, M50D, N52S, M88Q (antibody, human IgG1, V domains shown, Human IgG1) VH: EVQLVESGGGLVQPGGSLRLSCAASGFTFSPFAMSWVRQAPGKGLEWVAKISPGGSWTYYSDTVLDRFTFSLDTSKSTAYLQMNSLRAEDTAVYYCARQLWGYYALDIWGQGTLVTVSS VL: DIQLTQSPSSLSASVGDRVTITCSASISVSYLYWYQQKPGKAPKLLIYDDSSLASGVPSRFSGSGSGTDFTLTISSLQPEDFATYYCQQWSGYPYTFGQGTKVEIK
Value Unit: s⁻¹
Result Number: 0.000446
//
Binder: anti-IL-6 antibody, heavy chain T63K, G66D / light chain M32L, M50D, N52S, M88Q (antibody, human IgG1, V domains shown, Human IgG1) VH: EVQLVESGGGLVQPGGSLRLSCAASGFTFSPFAMSWVRQAPGKGLEWVAKISPGGSWTYYSDKVTDRFTFSLDTSKSTAYLQMNSLRAEDTAVYYCARQLWGYYALDIWGQGTLVTVSS VL: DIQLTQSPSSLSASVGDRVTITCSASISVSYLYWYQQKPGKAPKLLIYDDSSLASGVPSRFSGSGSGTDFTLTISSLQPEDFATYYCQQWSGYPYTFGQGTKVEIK
Value Unit: s⁻¹
Result Number: 0.000529
